Measured growth inhibition values are reported for all entries that follow.
- MEASUREMENT_DESCRIPTION: NCI Yeast Anticancer Drug Screen. Data for the mlh1 rad18 strain (AID 175)
- ASSAY_SETUP: S. cerevisiae mlh1 rad18 strain growth inhibition; at 50.0 µM; stronger effect = higher value
The panel holds about 79,000 compounds, 15% with a hit somewhere; the sample as a whole holds those more often. Where a SMILES comes first, the peptide text is derived from it. The star is where a group is joined. Myristoyl = CCCCCCCCCCCCCC(=O)*
ENDPOINT_LABEL: growth inhibition (%)

- COMPOUND: "Nc1ccc(S(=O)(=O)Nc2cnc3c(Cl)cccc3n2)cc1"
  NUMERIC_RESULT: -0.6
- COMPOUND: "O=S1(=O)NC(=NC2CCCC2)c2ccccc21"
  NUMERIC_RESULT: 1.15
- COMPOUND: "CCOC(=O)[C@H]1CS[C@]2(c3ccco3)CC(=O)N12"
  NUMERIC_RESULT: 44.1
- COMPOUND: "O=[N+]([O-])c1cccc(-c2oc(C=Nc3ccccc3)c([N+](=O)[O-])c2-c2cccc([N+](=O)[O-])c2)c1"
  NUMERIC_RESULT: 19.6
- COMPOUND: "COc1ccc(-c2ccccc2C(=O)O)cc1"
  NUMERIC_RESULT: 8.1
- COMPOUND: "Cc1ccc(N=C(N)NC#N)cc1"
  NUMERIC_RESULT: -7.75
- COMPOUND: "OC(COc1c2ccccc2nc2ccccc12)CN1CCN(c2ccccc2)CC1 (stereo not drawn)"
  NUMERIC_RESULT: 19.9
- COMPOUND: "CC1(C)C(=O)N2c3ccccc3C3(CC(N4C(=O)c5ccccc5C4=O)C(=O)O3)C2N1C(=O)OCc1ccccc1 (stereo not drawn)"
  NUMERIC_RESULT: -13.1
- COMPOUND: "CCCCCCCCCCCCCC(=O)NCC(=O)NC(CO)C(=O)NC(CO)C(=O)NC(CCCCN)C(=O)NC(CO)C(=O)NC(CCCCN)C(=O)N1CCCC1C(=O)NC(CCCCN)C(=O)NC(CC(=O)O)C(N)=O (stereo not drawn) (Myristoyl-GSSKSKPKD-NH2; configuration not given here)"
  NUMERIC_RESULT: 14
- COMPOUND: "COC1OC(CS(=O)(=O)O)C(O)C(O)C1O (stereo not drawn)"
  NUMERIC_RESULT: -4.3
- COMPOUND: "Nc1nc(CCC(=O)Nc2cccc(C(F)(F)F)c2)cc(-c2cccc3ccccc23)n1"
  NUMERIC_RESULT: 2.3
- COMPOUND: "CC(=O)OC1CC2CC1C1CC=CC21 (stereo not drawn)"
  NUMERIC_RESULT: 14.4
- COMPOUND: "c1ccc2c3c(ccc2c1)CCCC3"
  NUMERIC_RESULT: 0.7
